Tested on: soybean (Glycine max)
test.method.notes: Test C pre/postemergence
Type: in vivo
experimental.setup: Glycine max, post-emergence, Postemergence, 125 g ai/ha; scale 0 to 100 (0 no effect, 100 complete control); read-out: Soybean plant response rating
Can you tell me plant injury at 125 g/ha for the items I'm about to list?
Provide the reading as a plain figure in %.

stdin: GET /values?readout=plant injury at 125 g/ha&system=soybean (Glycine max)&item= CCOC(=O)c1nc(C2CC2)nc(N)c1F [Compound 30]
stdout: 90

stdin: Enter reported plant injury at 125 g/ha observed with soybean (Glycine max) for Nc1nc(C2CC2)nc(C(=O)O)c1Br [Compound 8]
stdout: 95

stdin: Form entry - test system: soybean (Glycine max); read-out: plant injury at 125 g/ha; molecule: COC(=O)c1nc(C2CC2)nc(N)c1Cl [Compound 9]
stdout: 100

stdin: Find the measured plant injury at 125 g/ha: item Nc1nc(C2CC2)nc(C(=O)OCc2ccccc2)c1Cl [Compound 78] , target or system soybean (Glycine max).
stdout: 100

stdin: Entry COC(=O)c1nc(C2CC2)nc(N)c1F [Compound 25] , system soybean (Glycine max): what plant injury at 125 g/ha was measured?
stdout: 90

stdin: Requested read-out plant injury at 125 g/ha, target or system soybean (Glycine max), entry CNc1nc(C2CC2)nc(C(=O)OC)c1Br [Compound 5]
stdout: 100

====

System: giant foxtail (Setaria faberii)
test.method.notes: Test C pre/postemergence
Assay type: in vivo
experimental.setup: Preemergence, 125 g ai/ha; scale 0 to 100
reported.endpoint: Plant response rating, Foxtail, Giant
Format: numeric value only, no unit, no commentary.

stdin: Quick check: Plant response rating, Foxtail, Giant on giant foxtail (Setaria faberii), item CCCOC(=O)c1nc(C2CC2)nc(N)c1Cl [Compound 75] ?
stdout: 10

stdin: Kindly state the measured Plant response rating, Foxtail, Giant obtained for CCOC(=O)C(OC(C)=O)c1nc(C2CC2)nc(N)c1Br (stereo not shown) [Compound 47] with giant foxtail (Setaria faberii).
stdout: 20

stdin: Notebook: pull reported Plant response rating, Foxtail, Giant for giant foxtail (Setaria faberii), entry CCOC(=O)c1nc(C2CC2)nc(N=CN(C)C)c1Br [Compound 40]
stdout: 0

stdin: Given the entry CCOC(=O)Cc1nc(C2CC2)nc(N=CN(C)C)c1Br [Compound 33] , what Plant response rating, Foxtail, Giant was observed with giant foxtail (Setaria faberii)?
stdout: 10

====

System: velvetleaf (Abutilon theophrasti)
test.method.notes: Test C pre/postemergence
Type: in vivo
experimental.setup: Abutilon theophrasti, post-emergence, Postemergence, 62 g ai/ha; scale 0 to 100 (0 no effect, 100 complete control); read-out: Velvetleaf plant response rating
reported.endpoint: pest or weed control at 62 g/ha (%)
Write the number in % without appending the unit.

stdin: For velvetleaf (Abutilon theophrasti), provide pest or weed control at 62 g/ha of CCOC(=O)c1nc(-c2ccc(Cl)cc2)nc(N)c1Cl please.
stdout: 85

stdin: Observed pest or weed control at 62 g/ha on velvetleaf (Abutilon theophrasti) for Nc1nc(C2CC2)nc(C(=O)O)c1Br , please.
stdout: 60

stdin: Identify the measured pest or weed control at 62 g/ha of COC(=O)c1nc(C(C)C)nc(N)c1Br for velvetleaf (Abutilon theophrasti).
stdout: 55

stdin: GET /values?readout=pest or weed control at 62 g/ha&system=velvetleaf (Abutilon theophrasti)&item= CNc1nc(C2CC2)nc(C(=O)OC)c1Br
stdout: 55

stdin: Item: COC(=O)c1nc(C2CC2)nc(N)c1Br Test system: velvetleaf (Abutilon theophrasti) Read-out: pest or weed control at 62 g/ha Value: ?
stdout: 70

stdin: Give pest or weed control at 62 g/ha (velvetleaf (Abutilon theophrasti)) of the following molecule: CCOC(=O)c1nc(C2CC2)nc(N)c1F
stdout: 10

====

Tested on: bermudagrass (Cynodon dactylon)
test.method.notes: Test C pre/postemergence
Assay type: in vivo
experimental.setup: Cynodon dactylon, post-emergence; Postemergence, 62 g ai/ha; scale 0 to 100 (0 no effect, 100 complete control); read-out: Bermudagrass plant response rating
Description: […]
reported.endpoint: pest or weed control at 62 g/ha (%)
Write the value in % as a bare number.

stdin: Any idea what pest or weed control at 62 g/ha was measured for CNc1nc(C2CC2)nc(C(=O)OC)c1Br ?
stdout: 5

stdin: Endpoint output: pest or weed control at 62 g/ha of COC(=O)c1nc(C2CC2)nc(N)c1Br . Value?
stdout: 60

stdin: What does the record list as pest or weed control at 62 g/ha for CCOC(=O)c1nc(-c2ccc(Br)cc2)nc(N)c1Cl ?
stdout: 75

stdin: I'd like to know its pest or weed control at 62 g/ha. The compound in question is Nc1nc(-c2ccc(Cl)cc2)nc(C(=O)O)c1Cl
stdout: 70

stdin: May I ask what pest or weed control at 62 g/ha has been recorded for COC(=O)c1nc(C(C)C)nc(N)c1Br ?
stdout: 0

stdin: # input compound: COC(=O)c1nc(C2CC2)nc(N)c1Cl ; wanted: its pest or weed control at 62 g/ha
stdout: 65

stdin: Fill in the blank: the reported pest or weed control at 62 g/ha of CCOC(=O)c1nc(C2CC2)nc(N)c1F is ____.
stdout: 0

====

Answer each item with its documented pest or weed control at 31 g/ha.
Tested on: common ragweed (Ambrosia elatior)
test.method.notes: Test C pre/postemergence
Assay type: in vivo
experimental.setup: Ambrosia artemisiifolia, pre-emergence, Preemergence, 31 g ai/ha; scale 0 to 100, 0 no effect, 100 complete control; read-out: Plant response rating, Ragweed
Numeric answer only, unit % assumed.

stdin: Data request, read-out pest or weed control at 31 g/ha, for COC(=O)c1nc(C2CC2)nc(N)c1Br
stdout: 0

stdin: I would be grateful if you could share the reported pest or weed control at 31 g/ha for Nc1nc(C2CC2)nc(C(=O)[O-])c1Cl.[Na+] [Compound 77, monosodium salt] .
stdout: 0

stdin: // lookup pest or weed control at 31 g/ha for Nc1nc(C2CC2)nc(C(=O)OCc2ccccc2)c1Cl
stdout: 65

stdin: Form field: reported pest or weed control at 31 g/ha of Nc1nc(-c2ccc(Br)cc2)nc(C(=O)O)c1Cl
stdout: 100

====

Provide the recorded Plant response rating (scale of 0 to 100), Ryegrass, Italian for the entries that follow.
System: Italian ryegrass (Lolium multiflorum)
test.method.notes: Test C postemergence
Type: in vivo
experimental.setup: 31 g ai/ha
Excerpt: […]
Reply with just the number.

stdin: What does the record list as Plant response rating (scale of 0 to 100), Ryegrass, Italian for COC(=O)c1nc(C2CC2)nc(N=CN(C)C)c1Br ?
stdout: 65

stdin: Quick one: Plant response rating (scale of 0 to 100), Ryegrass, Italian for Nc1nc(C2CC2)nc(C(=O)OCc2ccccc2)c1Cl ?
stdout: 0

stdin: # get_value(readout='Plant response rating (scale of 0 to 100), Ryegrass, Italian', item= COC(=O)c1nc(C(C)C)nc(N)c1Br )
stdout: 35

stdin: Requested read-out: Plant response rating (scale of 0 to 100), Ryegrass, Italian. Entry: CCOC(=O)C(Cl)(Cl)c1nc(C2CC2)nc(N)c1Br
stdout: 40

====

System: corn (Zea mays)
test.method.notes: Test B pre/postemergence
Type: in vivo
experimental.setup: Postemergence, 500 g ai/ha; scale 0 to 100
Please respond with reported Plant response rating, Corn for every item in the list.
Enter the number alone.

stdin: Report Plant response rating, Corn for CCOC(=O)Cc1nc(C2CC2)nc(N=CN(C)C)c1Br please.
stdout: 0

stdin: Tell me the measured Plant response rating, Corn of CN(C)N=Cc1nc(C2CC2)nc(N)c1Br , please.
stdout: 40

stdin: Which Plant response rating, Corn is reported for this compound? CCOC(=O)Cc1nc(C2CC2)nc(N)c1Br
stdout: 0

stdin: Can you share its Plant response rating, Corn? I mean this compound: Nc1nc(C2CC2)nc(C=NO)c1Br
stdout: 20

stdin: What Plant response rating, Corn value was documented for this compound, CCOC(=O)c1nc(C2CC2)nc(NCCN(C)C)c1Br ?
stdout: 0

stdin: Which measured Plant response rating, Corn value corresponds to COCc1nc(C2CC2)nc(N)c1Br ?
stdout: 0

stdin: # query: Plant response rating, Corn of entry CCCCOC(=O)c1nc(C2CC2)nc(N)c1Br
stdout: 80

stdin: If you can, please state the reported Plant response rating, Corn value of CCOC(=O)C(Cl)(Cl)c1nc(C2CC2)nc(N)c1Br .
stdout: 0

stdin: For the compound shown here, COC(=O)Cc1nc(C2CC2)nc(N)c1Br , give the reported Plant response rating, Corn.
stdout: 0

stdin: Quick one: Plant response rating, Corn of CC(C)COC(=O)c1nc(C2CC2)nc(N)c1Br ?
stdout: 80

stdin: Any idea what its Plant response rating, Corn is? The compound is CCOC(=O)c1nc(C2CC2)nc(NNC(C)=O)c1Br
stdout: 10

stdin: # Plant response rating, Corn lookup, item COC(=O)c1nc(C2CC2)nc(N=CN(C)C)c1Br
stdout: 70
